# Test system: survivin promoter
# protocol-text: Survivin luciferase reporter in SW480 cells
# Type: cell-based
# settings: Homo sapiens, SW480, read-out: RGA, Survivin IC50, uM, Table 10, prodrug compounds, reporter gene assay survivin
experimental-endpoint: IC50 (µM)
Give bare numbers, in µM.

Query :: Item CN1CC(=O)N2[C@@H](Cc3ccc(OP(=O)(O)O)cc3)C(=O)N(Cc3cccc4ccccc34)C[C@@H]2N1C(=O)NCc1ccccc1 [Compound 1] has what recorded IC50?
Result :: 6.4

Taken from patent US7932384B2.
